- System: E13 (patient-derived glioblastoma stem cells of classical subtype);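 further: cell Painting imaging in 384-well plates, CellProfiler features reduced to at least 20 principal components, Euclidean distance versus same-plate DMSO vehicle wells (0.1% v/v), median over six images per well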
- PROTOCOL_DESCRIPTION: phenotypic distance (Euclidean, principal components) from DMSO controls (arbitrary units); higher = stronger morphological change
- CONDITION_LABEL: 12.3 nM; exposure time: 72 h
Structures can show the parent of a compound that is named as a salt.
QUANTITY_KIND: phenotypic distance
Would you mind answering with just the numeric figure?

Please review the entries below; each comes with its answer.
Cc1c2ccncc2c(C)c2c1[nH]c1ccccc12 | 0.556
CCC(C)n1ncn(-c2ccc(N3CCN(c4ccc(OCC5COC(Cn6cncn6)(c6ccc(Cl)cc6Cl)O5)cc4)CC3)cc2)c1=O (stereo not drawn) | 0.503
CC(C)C[C@H](NC(=O)[C@H](CCc1ccccc1)NC(=O)CN1CCOCC1)C(=O)N[C@@H](Cc1ccccc1)C(=O)N[C@@H](CC(C)C)C(=O)[C@@]1(C)CO1 | 12.9

Q: // returns reported phenotypic distance for input O=C(/C=C/c1cccnc1)NCCCCC1CCN(C(=O)c2ccccc2)CC1
Result: 2.03

Q: // returns reported phenotypic distance for input Cc1c(-c2ccc(-c3ccccc3F)cc2)nc2ccc(F)cc2c1C(=O)O [Brequinar sodium salt hydrate]
Result: 0.844
